Please respond with reported Cellular binding assay [RFU] for every item in the list.
testedOn: T1, CD27 expressed on the cell surface of HT1080_CD27 cells (human, UniProt P26842 20-260)
T1 construct: whole, on cells; species not restated for the HT1080 transfectant
T1 sequence (looked up): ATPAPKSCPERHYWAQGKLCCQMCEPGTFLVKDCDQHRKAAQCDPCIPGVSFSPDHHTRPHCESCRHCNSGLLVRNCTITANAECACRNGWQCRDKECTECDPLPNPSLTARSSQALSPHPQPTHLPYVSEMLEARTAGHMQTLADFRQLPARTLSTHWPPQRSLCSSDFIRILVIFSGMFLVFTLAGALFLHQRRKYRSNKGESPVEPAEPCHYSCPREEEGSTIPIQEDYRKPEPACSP
assay: HT1080_CD27 cells, imaging; note: test concentration or dose not given here
One number for each entry, in RFU.

// worked examples, Cellular binding assay [RFU] included
P018.S.09.A.F05 (antibody, V domains shown, V regions on human Ig constant parts; also called AB27_157) VH: QEQLEESGGDLVKPGASLTLTCTASGFSFSSNYCMCWVRQAPGKGLEWIACICAGASGATYYASWAKGRFTVSKTSSTTVTLQMTSLTGADTATYFCARYDNSGWGDFKLWGPGTLVTVSS VL: DIVMTQTPASVSEPVGGTVTINCQASQNIGTYLAWYQQKPGQRPKLLIYAASYLASGVPSRFKGSGSGTEVALTISDLESADAATYYCQNTYYDSPVVGGAFGGGTEVVVK ... 400
P018.S.06.A.B01 (antibody, V domains shown, V regions on human Ig constant parts; also called AB27_98) VH: QSLEESGGGLVKPEGSLTLTCTASGFSFSSSYWICWVRQAPGKGLEWIGCIYAGTFSDTFYASWTKGRFTISKTSSTTVTLQMTSLTGADTATYFCARGHYYYTDNYTANGYGRGLTRLDLWGQGTLVTVSS VL: AAVLTQTPSPVSAAVGGTVTISCQASQSVYNNNNLAWYQQKAGQPPKLLIYGASNLESGVPSRFKGSGSGTQFTLTISDLESDDAASYYCAGGYTTSGDNGFGGGTEVVVK ... 279

Pending binder:
Record P018.S.10.A.C01 (antibody, V domains shown, V regions on human Ig constant parts; also called AB27_170) VH: QSVEESGGRLVTPGTPLTLTCTLSGFSLSNYAMSWVRQAPGKGLEWIGVIYTSGTTHYASWAKGRFTISKTSTTVDLRMTSLTTEDTATYFCARSRYYGSGWGGYYFNLWGQGTLVTVSS VL: DVVMTQTPSPVSAAVGGTVTINCQASEDIYSLLAWYQQKPGQRPKLLIYGASNLESGVPSRFKGSGSGTEYTLTISGVQSADAATYYCHGGTYTGSADINAFGGGTEVVVE . Reported Cellular binding assay [RFU]: 266
